experiment description: Protein binding in rat plasma at 3 mg/kg, iv or 1 mg/kg, po administered via gavage by LC-MS/MS analysis
Assay type: ADME, organism-based
stated conditions: read-out: PPB
reported property: fraction unbound

[[record]]
compound = "O=C(O)c1cc(F)c2nc(N3C4CCC3CC(OCc3c(-c5ccccc5OC(F)(F)F)noc3C3CC3)C4)sc2c1 (stereo unspecified)"
recorded_measurement = 0.001


###

test system: G-protein coupled bile acid receptor 1 (Mus musculus, UniProt Q80SS6)
Sequence (Q80SS6 whole entry): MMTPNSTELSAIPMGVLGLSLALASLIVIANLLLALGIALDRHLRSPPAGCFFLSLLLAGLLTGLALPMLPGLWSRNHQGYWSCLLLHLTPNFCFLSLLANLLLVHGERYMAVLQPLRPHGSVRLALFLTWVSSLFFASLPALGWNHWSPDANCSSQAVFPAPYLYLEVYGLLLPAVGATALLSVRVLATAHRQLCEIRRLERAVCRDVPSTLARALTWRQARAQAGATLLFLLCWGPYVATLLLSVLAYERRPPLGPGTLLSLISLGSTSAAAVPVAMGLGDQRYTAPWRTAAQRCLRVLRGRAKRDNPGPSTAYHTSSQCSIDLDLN
experiment description: Agonist activity at mouse TGR5
Reported EC50 values for the following compounds.
reported property: EC50 (nM)

[[record]]
compound = "CC[C@H]1[C@@H](O)[C@H]2[C@@H]3CC[C@H]([C@H](C)CCC(=O)NCC(=O)O)C3(C)CC[C@@H]2[C@@]2(C)CC[C@@H](O)C[C@@H]12 (single isomer, unassigned)"
reported_property = "EC50"
value_operator = "="
recorded_measurement = 637

[[record]]
compound = "O=C(O)c1cc(F)c2nc(N3C4CCC3CC(OCc3c(-c5ccccc5OC(F)(F)F)noc3C3CC3)C4)sc2c1 (centres undefined)"
reported_property = "EC50"
value_operator = ">"
recorded_measurement = 10000

[[record]]
compound = "CC[C@H]1[C@@H](O)[C@@H]2[C@H](CC[C@]3(C)[C@@H]([C@H](C)CCC(=O)O)CC[C@@H]23)[C@@]2(C)CC[C@@H](O)C[C@@H]12"
reported_property = "EC50"
value_operator = "="
recorded_measurement = 5740

[[record]]
compound = "CC[C@H]1[C@@H](O)[C@H]2[C@@H]3CC[C@H]([C@H](C)CCC(=O)NCCS(=O)(=O)O)C3(C)CC[C@@H]2[C@@]2(C)CC[C@@H](O)C[C@@H]12 (single isomer, unassigned)"
reported_property = "EC50"
value_operator = "="
recorded_measurement = 906

